# Test system: barnyardgrass
# run.description: Test C flooded paddy test
# Type: in vivo, Echinochloa crus-galli
# conditions: Flood, 62 g ai/ha; scale 0 to 100 (0 no effect, 100 complete control)
The reader will find reported Plant response rating, Barnyardgrass values listed item by item below.
reported.metric: Plant response rating, Barnyardgrass

INSERT INTO results (compound, measured_value) VALUES
  ('CCn1nc(C(F)(F)F)c(C(C)S(=O)(=O)c2cccc[n+]2[O-])c1OCC(F)(F)F (stereo not drawn)', 0),
  ('CCn1nc(C(F)(F)F)c(CS(=O)(=O)c2cccc[n+]2[O-])c1OCC(F)(F)F', 40),
  ('Cn1nc(C(F)(F)F)c(C[S+]([O-])c2cccc[n+]2[O-])c1OCC(F)(F)C(F)(F)F (stereo not drawn)', 0),
  ('Cn1nc(C(F)(F)C(F)(F)F)c(CS(=O)(=O)c2cccc[n+]2[O-])c1OCC(F)(F)F', 15),
  ('CCOc1ccc(S(=O)(=O)Cc2c(C(F)(F)F)nn(C)c2OC(F)F)[n+]([O-])c1', 0),
  ('Cn1nc(C(F)(F)C(F)(F)F)c(CS(=O)(=O)c2ccc(Cl)c[n+]2[O-])c1OCC(F)(F)F', 0);

----------
# Test system: cocklebur
# run.description: Test C pre-/postemergence test
# Format: in vivo, Xanthium strumarium
# conditions: Postemergence, 250 g ai/ha; scale 0 to 100, 0 no effect, 100 complete control
Quick reference for Plant response rating, Cocklebur among some molecules
reported.metric: Plant response rating, Cocklebur

INSERT INTO assay_data (molecule, reported_metric, measured_value) VALUES
  ('Cn1nc(C(F)(F)F)c(C[S+]([O-])c2ccc(F)c[n+]2[O-])c1OCC(F)(F)F (stereo not drawn)', 'Plant response rating, Cocklebur', 0),
  ('CCn1nc(C(F)(F)F)c(C(C)S(=O)(=O)c2cccc[n+]2[O-])c1OCC(F)(F)F (stereo not drawn)', 'Plant response rating, Cocklebur', 0),
  ('CC(c1c(C(F)(F)F)nn(C)c1OC(F)F)S(=O)(=O)c1cccc[n+]1[O-] (stereo not drawn)', 'Plant response rating, Cocklebur', 10),
  ('CC(c1c(C(F)(F)F)nn(C)c1Cl)S(=O)(=O)c1ccc(Cl)c[n+]1[O-] (racemic)', 'Plant response rating, Cocklebur', 0),
  ('[O-][n+]1cc(Cl)ccc1[S+]([O-])Cc1c(C(F)(F)F)nn(CC(F)(F)F)c1Cl (stereo not drawn)', 'Plant response rating, Cocklebur', 0),
  ('CCn1nc(C(F)(F)F)c(C[S+]([O-])c2cccc[n+]2[O-])c1OCC(F)(F)F (racemic)', 'Plant response rating, Cocklebur', 0);

----------
# Tested on: common ragweed
# run.description: Test C pre-/postemergence test
# Type: in vivo, Ambrosia elation
# conditions: Postemergence, 250 g ai/ha; scale 0 to 100, 0 no effect, 100 complete control
Item-by-item account of Plant response rating, Ragweed
reported.metric: Plant response rating, Ragweed

INSERT INTO measurements (molecule, measured_value) VALUES
  ('Cn1nc(C(F)(F)F)c(C[S+]([O-])c2cccc[n+]2[O-])c1OC(F)F (centres unmarked)', 50),
  ('Cc1cc[n+]([O-])c([S+]([O-])Cc2c(C(F)(F)F)nn(C)c2OC(F)F)c1 (centres unmarked)', 20),
  ('Cn1nc(C(F)(F)C(F)(F)F)c(C[S+]([O-])c2cccc[n+]2[O-])c1OCC(F)(F)F (centres unmarked)', 50),
  ('CC(c1c(C(F)(F)F)nn(C)c1OC(F)F)S(=O)(=O)c1cccc[n+]1[O-] (centres unmarked)', 55),
  ('Cn1nc(C(F)(F)F)c(C[S+]([O-])c2ccc(F)c[n+]2[O-])c1OCC(F)(F)F (centres unmarked)', 55);

----------
# Tested on: itchgrass
# run.description: Test F preemergence test
# Format: in vivo, Rottboellia cochinchinensis
# conditions: 125 g ai/ha, preemergence, scale 0 to 100
# Source text: Seeds of plant species selected from bermudagrass (Cynodon dactylon), Surinam grass (Brachiaria decumbens), large crabgrass (Digitaria sanguinalis), green foxtail (Setaria viridis), goosegrass (Eleusine indica), johnsongrass (Sorghum halepense), kochia (Kochia scoparia), pitted morningglory (Ipomoea lacunosa), purple nutsedge (Cyperus rotundus), common ragweed (Ambrosia elation), mustard (Brassica nigra), guineagrass (Panicum maximum), […] […]
Reported Itchgrass plant response rating values for the following compounds.
reported.metric: Itchgrass plant response rating

INSERT INTO assay_data (compound, target_system, measured_value) VALUES
  ('Cc1cc[n+]([O-])c(S(=O)(=O)C(Cl)c2c(C(F)(F)F)nn(C)c2Cl)c1 (racemic) [Compound 22]', 'itchgrass', 60),
  ('CC(c1c(C(F)(F)F)nn(C)c1OCC(F)(F)F)S(=O)(=O)c1cccc[n+]1[O-] (racemic) [Compound 33]', 'itchgrass', 100),
  ('CC(Oc1c(C[S+]([O-])c2ccc(Cl)c[n+]2[O-])c(C(F)(F)F)nn1C)C(F)(F)F (stereo not shown) [Compound 87]', 'itchgrass', 100),
  ('Cc1cc[n+]([O-])c(S(=O)(=O)Cc2c(C(F)(F)F)nn(C)c2OCC(F)(F)F)c1 [Compound 31]', 'itchgrass', 80);

----------
Recorded Wheat plant response rating for the following molecules
# Tested on: wheat
# run.description: Test C pre-/postemergence test
# Assay type: in vivo, Triticum aestivum
# conditions: 62 g ai/ha, preemergence; scale 0 (no effect) to 100 (complete control)
reported.metric: Wheat plant response rating

INSERT INTO measurements (molecule, reported_metric, measured_value) VALUES
  ('Cc1cc[n+]([O-])c(S(=O)(=O)C(C)c2c(C(F)(F)F)nn(C)c2Cl)c1 (racemic)', 'Wheat plant response rating', 20),
  ('Cn1nc(C(F)(F)F)c(CS(=O)(=O)c2cccc[n+]2[O-])c1OC(F)F', 'Wheat plant response rating', 20),
  ('Cn1nc(C(F)(F)F)c(C[S+]([O-])c2cccc[n+]2[O-])c1Cl (stereo not shown)', 'Wheat plant response rating', 30),
  ('Cc1cc[n+]([O-])c([S+]([O-])Cc2c(C(F)(F)F)nn(C)c2OC(F)F)c1 (stereo not shown)', 'Wheat plant response rating', 30);

----------
Each record here notes measured Dallisgrass plant response rating.
# Test system: dallisgrass
# run.description: Test F preemergence test
# Assay type: in vivo, Paspalum dilatatum
# conditions: 125 g ai/ha, preemergence, scale 0 to 100
reported.metric: Dallisgrass plant response rating

INSERT INTO measurements (compound, measured_value) VALUES
  ('Cn1nc(OC(F)F)c(CS(=O)(=O)c2cccc[n+]2[O-])c1C(F)(F)F [Compound 80]', 100),
  ('Cc1cc[n+]([O-])c(S(=O)(=O)C(Cl)c2c(C(F)(F)F)nn(C)c2OCC(F)(F)F)c1 (racemic) [Compound 37]', 100),
  ('Cn1nc(C(F)(F)F)c(C[S+]([O-])c2ccc(F)c[n+]2[O-])c1OCC(F)(F)F (stereo not drawn) [Compound 67]', 100),
  ('Cc1cc[n+]([O-])c(S(=O)(=O)C(Cl)c2c(C(F)(F)F)nn(C)c2Cl)c1 (racemic) [Compound 22]', 100),
  ('Cn1nc(C(F)(F)F)c(C[S+]([O-])c2ccc(Cl)c[n+]2[O-])c1OCC(F)F (stereo not drawn) [Compound 85]', 98),
  ('CCn1nc(C(F)(F)F)c(C[S+]([O-])c2cc(C)cc[n+]2[O-])c1OCC(F)(F)F (racemic) [Compound 66]', 100),
  ('Cc1cc[n+]([O-])c([S+]([O-])Cc2c(C(F)(F)F)nn(C)c2OCC(F)(F)F)c1 (racemic) [Compound 30]', 98),
  ('CC(Oc1c(C[S+]([O-])c2ccc(Cl)c[n+]2[O-])c(C(F)(F)F)nn1C)C(F)(F)F (stereo not drawn) [Compound 87]', 80),
  ('Cc1cc([S+]([O-])Cc2c(C(F)(F)F)nn(C)c2OCC(F)(F)F)[n+]([O-])cc1Cl (stereo not drawn) [Compound 70]', 98);

----------
# Test system: redroot pigweed
# run.description: Test A pre-/postemergence greenhouse test
# Type: in vivo, Amaranthus retroflexus
# conditions: Postemergence, 500 g ai/ha; 0 to 100 scale, 0 is no effect, 100 is complete control
Each entry below carries its recorded Pigweed plant response rating.
reported.metric: Pigweed plant response rating

INSERT INTO assay_data (molecule, measured_value) VALUES
  ('Cc1cc[n+]([O-])c([S+]([O-])C(C)c2c(C(F)(F)F)nn(C)c2Cl)c1 (mixture of isomers)', 0),
  ('Cn1nc(OC(F)F)c(CS(=O)(=O)c2cccc[n+]2[O-])c1C(F)(F)F', 40),
  ('Cc1cc[n+]([O-])c(S(=O)(=O)Cc2c(C(F)(F)F)nn(C)c2OCC(F)(F)C(F)(F)F)c1', 20),
  ('CC(c1c(C(F)(F)F)nn(C)c1Cl)[S+]([O-])c1cccc[n+]1[O-] (mixture of isomers)', 10),
  ('Cc1cc[n+]([O-])c([S+]([O-])Cc2c(C(F)(F)F)nn(CC(F)(F)F)c2Cl)c1 (centres unmarked)', 60);
